Data provenance is paper PMC12064818.

- measured-target: FLuc-C-HiBiT (Photinus pyralis)
- Construct: firefly luciferase with C-terminal HiBiT tag, E. coli expressed
- Sequence (P08659 whole entry, looked up): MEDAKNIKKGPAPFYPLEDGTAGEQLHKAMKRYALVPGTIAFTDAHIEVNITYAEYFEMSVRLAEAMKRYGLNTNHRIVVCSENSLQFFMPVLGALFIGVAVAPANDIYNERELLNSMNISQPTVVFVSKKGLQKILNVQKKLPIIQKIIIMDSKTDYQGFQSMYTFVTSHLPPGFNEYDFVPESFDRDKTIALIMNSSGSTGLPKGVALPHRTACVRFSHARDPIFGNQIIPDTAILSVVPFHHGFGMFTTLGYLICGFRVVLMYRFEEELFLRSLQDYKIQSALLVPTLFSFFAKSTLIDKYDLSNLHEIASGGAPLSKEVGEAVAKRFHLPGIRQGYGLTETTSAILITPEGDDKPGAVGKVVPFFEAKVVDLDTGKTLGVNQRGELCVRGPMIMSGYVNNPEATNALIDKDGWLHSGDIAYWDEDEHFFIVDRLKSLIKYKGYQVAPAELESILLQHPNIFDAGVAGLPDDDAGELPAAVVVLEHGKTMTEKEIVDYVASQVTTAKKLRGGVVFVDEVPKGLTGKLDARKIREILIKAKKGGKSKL
- protocol-text: biochemical
- condition-summary: enzyme activity, 10 uM ATP; read-out: IC50 or SDR50 (mM) / FLuc E
Measured log10 IC50 of individual entries
Units before log transform: mM; reported quantity: IC50; transform: log10.

Please review the entries below; each comes with its answer.
Exercise: Specify log10 IC50 for COc1ccc(CN2CCNc3cc(Nc4ccccc4)ncc3C2)cn1 [NCGC00411080-01] and stop.
Key: -1.74

Exercise: Specify log10 IC50 for COc1cccc(CN2CCc3nc(C(=O)Nc4nc(C)cs4)oc3CC2)c1 [NCGC00413306-01] and stop.
Key: -1.74

Exercise: Specify log10 IC50 for c1ccc(COc2ccc(CN3CCSCC3)cc2)nc1 [NCGC00446150-01] and stop.
Key: -1.91

Let us examine a further case.
Exercise: Specify log10 IC50 for COC(=O)c1cccc(-c2noc(-c3ccccc3F)n2)c1 [NCGC00183594-01] and stop.
Key: -2.45
